Here, each record is paired with measured Stability (% RE) Short-Term data.
- ASSAY METHOD TEXT: Stability of the analytes in beagle plasma QC samples under different storage conditions
- Assay type: physicochemical, beagle dog
- REPORTED CONDITIONS: medium QC in beagle plasma, 4 h at ambient temperature, n = 6
I only need the number, in % RE, no unit after it.

Completed entries (count: 2):
                                   molecule  reported
0  COc1ccc2cc3[n+](cc2c1OC)CCc1cc2c(cc1-3)OCO2 [Berberine, berberine]      7.42
1  COc1cc2c(cc1O)-c1cc3ccc(OC)c(OC)c3c[n+]1CC2 [Columbamine, columbamine]      4.02

// next item, Stability (% RE) Short-Term requested
Q) Would you kindly share the measured Stability (% RE) Short-Term for COc1cc2c(cc1O)CC[n+]1cc3c(OC)c(OC)ccc3cc1-2 [Jateorhizine, jateorhizine] ?
A) 3.05
